The measured values listed here are drawn from patent US9409952B2.

Protocol: PAMPA (parallel artificial membrane permeability assay)
Assay type: in vitro ADME
Applied Conditions: PAMPA, pH 6.5
Positions of bridges follow the written chain, without caps; N, C: chain ends. Non-standard residues stand in square brackets, D forms with d. Residues, ends and D or L forms follow the SMILES beside them. *: point of attachment. NMeF = CN[C@@H](Cc1ccccc1)C(=O)O; NMeI = CC[C@H](C)[C@H](NC)C(=O)O; NMeL = CN[C@@H](CC(C)C)C(=O)O; NMeV = CN[C@H](C(=O)O)C(C)C; NMeA = CN[C@@H](C)C(=O)O; Piperidide = C1CCN(*)CC1; dNMeA = CN[C@H](C)C(=O)O; tBu = CC(C)(C)*
Readout Label: Papp at 18 hours, 50 µM
Quick note: unit goes after the number.

Data request: Supply measured Papp at 18 hours, 50 µM of CC[C@H](C)[C@H]1C(=O)N(C)[C@@H](Cc2ccccc2)C(=O)NCC(=O)N(C)[C@@H](Cc2ccccc2)C(=O)N(C)[C@@H](CC(C)C)C(=O)N(C)[C@@H](CC(C)C)C(=O)N[C@H](C(=O)N2CCCCC2)CC(=O)N[C@H](C(C)C)C(=O)N[C@@H]([C@@H](C)O)C(=O)N(C)[C@@H](C)C(=O)N1C [DP-72] ([dV]T[NMeA][NMeI][NMeF]G[NMeF][NMeL][NMeL]D-Piperidide; lactam N-10) in your reply.
Data returned: 27 ×10⁻⁶ cm/s

Data request: Supply measured Papp at 18 hours, 50 µM of CC[C@H](C)[C@H]1C(=O)N(C)[C@@H](CC(C)C)C(=O)N[C@H](C(=O)N2CCCCC2)CC(=O)N(C)[C@H](C)C(=O)N(C)[C@@H](CC(C)C)C(=O)N[C@@H](CC(C)C)C(=O)N(C)[C@@H](Cc2ccccc2)C(=O)N[C@@H](COC(C)(C)C)C(=O)N(C)[C@@H](Cc2ccccc2)C(=O)N[C@@H]([C@@H](C)O)C(=O)N(C)[C@@H](C)C(=O)N1C [DP-49] ([dNMeA][NMeL]L[NMeF]S(tBu)[NMeF]T[NMeA][NMeI][NMeL]D-Piperidide; lactam N-11) in your reply.
Data returned: 18 ×10⁻⁶ cm/s

Data request: Supply measured Papp at 18 hours, 50 µM of CC[C@H](C)[C@H](NC(=O)[C@@H]1CC(=O)N[C@@H](C)C(=O)N[C@@H]([C@@H](C)O)C(=O)N[C@@H](CC(C)C)C(=O)N2CCC[C@H]2C(=O)N[C@@H](Cc2ccccc2)C(=O)N(C)[C@@H](Cc2ccccc2)C(=O)N(C)[C@@H](C(C)C)C(=O)N[C@@H](C)C(=O)N(C)[C@@H](CC(C)C)C(=O)N1)C(=O)N1CCCCC1 [DP-44] (ATLPF[NMeF][NMeV]A[NMeL]DI-Piperidide; lactam N-10) in your reply.
Data returned: 20 ×10⁻⁶ cm/s
